Target: hMAO-B (Homo sapiens)
Assay: hMAO-B inhibitory activity, Amplex Red continuous fluorometric assay
Conditions: recombinant hMAO-B, p-tyramine substrate, Amplex Red; mean SEM
OBSERVED PROPERTY: IC50 (µM)
Give the value, in units of µM, as a plain number.

IC50 recorded for this compound, O=C(/C=C/C=C/c1ccc2c(c1)OCO2)N1CCOCC1 , is 71

IC50 recorded for this compound, CC1CCC(C(C)C)C(OC(=O)/C=C/C=C/c2ccc3c(c2)OCO3)C1 (stereo not drawn) , is 20.6

IC50 recorded for this compound, O=C(/C=C/C=C/c1ccc2c(c1)OCO2)N1CCCCC1 [Piperine, reference compound] , is 17.6

IC50 recorded for this compound, O=C(/C=C/C=C/c1ccc2c(c1)OCO2)Oc1ccc2ccc(=O)oc2c1 , is 66

IC50 recorded for this compound, O=C(/C=C/C=C/c1ccc2c(c1)OCO2)Nc1ccc(Br)cc1 , is 14.2

IC50 recorded for this compound, O=C(/C=C/C=C/c1ccc2c(c1)OCO2)Nc1cccc2ccccc12 , is 52.2

IC50 recorded for this compound, Cc1ccc(C(C)C)cc1OC(=O)/C=C/C=C/c1ccc2c(c1)OCO2 [Compound 17a] , is 21.4

IC50 recorded for this compound, C=CCc1ccc(OC(=O)/C=C/C=C/c2ccc3c(c2)OCO3)c(OC)c1 [Compound 17c] , is 26.4

Next:
IC50 recorded for this compound, COc1cc(C=O)ccc1OC(=O)/C=C/C=C/c1ccc2c(c1)OCO2 [Compound 17b] , is 17.9

---

Assay: Hydrogen peroxide scavenging (H2O2) assay
Settings: absorption at 230 nm, 10 min incubation, phosphate buffer pH 7.4; mean ± SEM, n = 3
# key: entry, value: IC50

Answered cases to consult:
IC50 recorded for this compound, Cc1ccc(C(C)C)cc1OC(=O)/C=C/C=C/c1ccc2c(c1)OCO2 [Compound 17a] , is 23.8 µM

IC50 recorded for this compound, O=C(/C=C/C=C/c1ccc2c(c1)OCO2)Nc1ccc(Br)cc1 , is 8.28 µM

IC50 recorded for this compound, CC1CCC(C(C)C)C(OC(=O)/C=C/C=C/c2ccc3c(c2)OCO3)C1 (stereo not drawn) , is 17.6 µM

IC50 recorded for this compound, COc1cc(C=O)ccc1OC(=O)/C=C/C=C/c1ccc2c(c1)OCO2 [Compound 17b] , is 10.1 µM

IC50 recorded for this compound, O=C(/C=C/C=C/c1ccc2c(c1)OCO2)N1CCCCC1 [Piperine, reference compound] , is 11.3 µM

New cases:
IC50 recorded for this compound, O=C(/C=C/C=C/c1ccc2c(c1)OCO2)N1CCOCC1 , is 14 µM

IC50 recorded for this compound, O=C(/C=C/C=C/c1ccc2c(c1)OCO2)Nc1cccc2ccccc12 , is 9.5 µM

IC50 recorded for this compound, C=CCc1ccc(OC(=O)/C=C/C=C/c2ccc3c(c2)OCO3)c(OC)c1 [Compound 17c] , is 15.7 µM

IC50 recorded for this compound, O=C(/C=C/C=C/c1ccc2c(c1)OCO2)Oc1ccc2ccc(=O)oc2c1 , is 11.3 µM

---

Molecular target: hMAO-B (Homo sapiens, UniProt P27338)
Construct: purchased Sigma-Aldrich; host or cells: insect cells (BTI-TN-5B14), recombinant baculovirus
Sequence (P27338 whole entry): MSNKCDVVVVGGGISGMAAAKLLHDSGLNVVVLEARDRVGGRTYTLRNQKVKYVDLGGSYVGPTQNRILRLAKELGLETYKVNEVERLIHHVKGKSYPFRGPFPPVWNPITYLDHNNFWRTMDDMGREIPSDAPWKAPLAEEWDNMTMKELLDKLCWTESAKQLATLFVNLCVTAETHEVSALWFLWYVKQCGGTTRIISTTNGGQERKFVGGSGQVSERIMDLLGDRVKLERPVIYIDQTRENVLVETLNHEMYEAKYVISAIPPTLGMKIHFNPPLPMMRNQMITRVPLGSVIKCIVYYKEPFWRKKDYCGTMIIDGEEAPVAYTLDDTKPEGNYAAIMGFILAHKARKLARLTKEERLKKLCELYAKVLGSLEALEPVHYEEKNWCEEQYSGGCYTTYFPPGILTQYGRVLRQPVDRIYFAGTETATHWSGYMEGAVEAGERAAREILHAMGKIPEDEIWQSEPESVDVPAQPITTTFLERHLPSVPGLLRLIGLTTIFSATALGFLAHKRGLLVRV
Assay: hMAO-B inhibitory activity, Amplex Red continuous fluorometric assay
Format: biochemical
Conditions: IC50 (MAO-A)/IC50 (MAO-B)
OBSERVED PROPERTY: Selectivity index
No unit in the answer, please; the number alone is enough.

Answered cases to consult:
Selectivity index recorded for this compound, O=C(/C=C/C=C/c1ccc2c(c1)OCO2)Nc1ccc(Br)cc1 , is 4.241

Selectivity index recorded for this compound, C=CCc1ccc(OC(=O)/C=C/C=C/c2ccc3c(c2)OCO3)c(OC)c1 [Compound 17c] , is 0.609

New cases:
Selectivity index recorded for this compound, O=C(/C=C/C=C/c1ccc2c(c1)OCO2)Oc1ccc2ccc(=O)oc2c1 , is 0.371

Measured values drawn from paper PMC7027018 for this set.
